B1: CPEB3 Ribozyme (parent)
chain: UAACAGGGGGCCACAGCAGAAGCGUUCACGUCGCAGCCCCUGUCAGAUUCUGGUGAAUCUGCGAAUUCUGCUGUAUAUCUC

# Variants of: B1
# PROTOCOL: self-cleavage, relative activity (ratio to wild type); higher = more cleavage; in vitro, sequencing
Tag: fulfilled if measured self-cleavage is not below 0.5, not fulfilled if it is.

[
  {
    "VARIANT": "U54C G63A",
    "QUALITATIVE LABEL": "fulfilled"
  }
]

Form field: self-cleavage at least 0.5? Entry: U1C U25A
not fulfilled

Given G19C U60A , state whether its self-cleavage is at least 0.5.
not fulfilled

Hi team, for U69G U80A , is the recorded self-cleavage at or above 0.5?
fulfilled
